molecular target: mouse kappa opioid receptor (mKOR) (Mus musculus, UniProt P33534); construct: a mouse thymoma cell line that expresses only the kappa-opioid receptor and no other opioid receptor subtype; host or cells: R1.G1 mouse thymoma cells; test: Inhibition of forskolin-stimulated cAMP production in R1.G1 cells (TR-FRET cAMP immunoassay); assay type: cell-based; conditions: read-out: mKOR Efficacy(%), R1.G1 cells
Sequence (P33534 whole entry): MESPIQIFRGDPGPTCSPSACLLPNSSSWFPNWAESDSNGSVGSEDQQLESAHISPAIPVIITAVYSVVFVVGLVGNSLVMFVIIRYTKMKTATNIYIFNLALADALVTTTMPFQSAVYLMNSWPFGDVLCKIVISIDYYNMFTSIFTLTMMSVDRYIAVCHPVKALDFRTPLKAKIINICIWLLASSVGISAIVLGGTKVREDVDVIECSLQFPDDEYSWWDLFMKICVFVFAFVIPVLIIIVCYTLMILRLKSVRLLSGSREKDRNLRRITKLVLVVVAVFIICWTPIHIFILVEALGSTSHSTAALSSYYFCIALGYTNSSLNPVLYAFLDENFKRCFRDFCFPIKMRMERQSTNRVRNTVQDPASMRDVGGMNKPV
Square brackets hold non-standard residues; d marks the D form. Side chains are listed from the residue outwards. Peptide text beside a SMILES is read from it. dAgp = N=C(N)NC[C@@H](N)C(=O)O; dOrn = NCCC[C@@H](N)C(=O)O; Api = NC1(C(=O)O)CCNCC1
endpoint.label: Emax

// solved cases for Emax follow
{"compound": "CC(C)C[C@@H](NC(=O)[C@@H](Cc1ccccc1)NC(=O)[C@H](N)Cc1ccccc1)C(=O)N[C@H](CCCN)C(=O)NCCCC[C@H](NC(=O)[C@@H](CCCN)NC(=O)[C@@H](CC(C)C)NC(=O)[C@@H](Cc1ccccc1)NC(=O)[C@H](N)Cc1ccccc1)C(N)=O [Compound 43] (H-[dF][dF][dL][dOrn]K([dOrn-dL-dF-dF])-NH2)", "endpoint.label": "Emax", "measurement": "101%"}
{"compound": "CC(C)C[C@@H](NC(=O)[C@H](N)Cc1ccccc1)C(=O)N[C@H](CCCN)C(=O)N[C@@H](CCCCNC(=O)[C@@H](CCCN)NC(=O)[C@@H](CC(C)C)NC(=O)[C@@H](Cc1ccccc1)NC(=O)[C@H](N)Cc1ccccc1)C(=O)O [Compound 40]", "endpoint.label": "Emax", "measurement": "96%"}
{"compound": "CC(C)C[C@@H](NC(=O)[C@@H](Cc1ccccc1)NC(=O)[C@H](N)Cc1ccccc1)C(=O)N[C@H](CCCNC(C)C)C(=O)NC1(C(=O)O)CCN(C(=O)[C@@H](CCCNC(C)C)NC(=O)[C@@H](CC(C)C)NC(=O)[C@@H](Cc2ccccc2)NC(=O)[C@H](N)Cc2ccccc2)CC1 [Compound 49]", "endpoint.label": "Emax", "measurement": "50%"}
{"compound": "CC(C)C[C@@H](NC(=O)[C@H](N)Cc1ccccc1)C(=O)N[C@H](CCCN)C(=O)N[C@H](CCCCNC(=O)[C@@H](CCCN)NC(=O)[C@@H](CC(C)C)NC(=O)[C@@H](Cc1ccccc1)NC(=O)[C@H](N)Cc1ccccc1)C(=O)O [Compound 47]", "endpoint.label": "Emax", "measurement": "91%"}

Now for another entry.
Return reported Emax; argument: CC(C)C[C@@H](NC(=O)[C@@H](Cc1ccccc1)NC(=O)[C@H](N)Cc1ccccc1)C(=O)N[C@H](CNC(=N)N)C(=O)NC1(C(=O)O)CCN(C(=O)[C@@H](CNC(=N)N)NC(=O)[C@@H](CC(C)C)NC(=O)[C@@H](Cc2ccccc2)NC(=O)[C@H](N)Cc2ccccc2)CC1 [Compound 50] (H-[dF][dF][dL][dAgp][Api]([dAgp-dL-dF-dF])-OH)
77%

----------
biological target: human kappa opioid receptor (hKOR) (Homo sapiens, UniProt P41145); construct: expressed in transfected cells; host or cells: HEK-293 cells (ATCC), transient transfection with pcDNA3-hOPRK1; assay: NFAT-luciferase reporter assay in HEK-293 cells transfected with human kappa opioid receptor and chimeric G-protein; format: cell-based; settings: HEK293; percent maximal activation compared to full induction by known kappa agonists; read-out: hKOR Efficacy(%)
Sequence (P41145 whole entry): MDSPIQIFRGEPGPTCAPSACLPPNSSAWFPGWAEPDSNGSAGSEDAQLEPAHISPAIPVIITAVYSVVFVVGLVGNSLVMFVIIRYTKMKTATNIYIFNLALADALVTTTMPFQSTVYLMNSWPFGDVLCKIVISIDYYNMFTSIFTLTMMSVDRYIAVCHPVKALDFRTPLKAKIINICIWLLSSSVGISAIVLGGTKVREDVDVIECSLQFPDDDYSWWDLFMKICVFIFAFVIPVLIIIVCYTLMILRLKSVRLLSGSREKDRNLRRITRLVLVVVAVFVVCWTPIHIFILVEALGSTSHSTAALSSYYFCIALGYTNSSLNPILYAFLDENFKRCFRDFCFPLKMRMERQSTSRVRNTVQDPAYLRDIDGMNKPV
endpoint.label: Emax (%)
Entry rule: numbers only, all in %.

Worked cases, Emax given:
{"smiles.repr": "CC(C)C[C@@H](NC(=O)[C@@H](Cc1ccccc1)NC(=O)[C@H](N)Cc1ccccc1)C(=O)N[C@H](CCCN)C(=O)NCCCC[C@@H](NC(=O)[C@H](N)CCCN)C(=O)O", "Emax (%)": 96}
{"smiles.repr": "CC(C)C[C@@H](NC(=O)[C@@H](Cc1ccccc1)NC(=O)[C@H](N)Cc1ccccc1)C(=O)N[C@H](CCCN)C(=O)N1CCC(N2CCC[C@H]2C(N)=O)CC1", "Emax (%)": 105}

Okay, now this compound:
# Emax lookup, item CC(C)C[C@@H](NC(=O)[C@@H](Cc1ccccc1)NC(=O)[C@H](N)Cc1ccccc1)C(=O)N[C@H](CCCN)C(=O)N1CCC(CCCC(=O)O)CC1
99

----------
target: mouse kappa opioid receptor (mKOR) (Mus musculus, UniProt P33534); construct: a mouse thymoma cell line that expresses only the kappa-opioid receptor and no other opioid receptor subtype; host or cells: R1.G1 mouse thymoma cells; assay: Inhibition of forskolin-stimulated cAMP production in R1.G1 cells (TR-FRET cAMP immunoassay); format: cell-based; conditions: R1.G1 cells
// reported mKOR Efficacy(%) for each item listed
A number alone suffices; assume %.

{"compound": "CNC(=N)N1CCCN(C(=O)[C@@H](CCCN)NC(=O)[C@@H](CC(C)C)NC(=O)[C@@H](Cc2ccccc2)NC(=O)[C@H](N)Cc2ccccc2)CC1", "mKOR Efficacy(%)": 101}
{"compound": "CC(C)C[C@@H](NC(=O)[C@@H](Cc1ccccc1)NC(=O)[C@H](N)Cc1ccccc1)C(=O)N[C@H](CCCN)C(=O)N1CCNC(C(=O)O)C1 (some centres unmarked)", "mKOR Efficacy(%)": 102}
{"compound": "CC(C)C[C@@H](NC(=O)[C@@H](Cc1ccccc1)NC(=O)[C@H](N)Cc1ccccc1)C(=O)N[C@H](CCCCN)C(=O)N1CCN(c2ccccn2)CC1", "mKOR Efficacy(%)": 89}

Data request, read-out mKOR Efficacy(%), for CCN1CCCN(C(=O)[C@@H](CCCN)NC(=O)[C@@H](CC(C)C)NC(=O)[C@@H](Cc2ccccc2)NC(=O)[C@H](N)Cc2ccccc2)CC1
99

Please look up its mKOR Efficacy(%): CC(C)C[C@@H](NC(=O)[C@@H](Cc1ccccc1)NC(=O)[C@H](N)Cc1ccccc1)C(=O)N[C@H](CCCN)C(=O)N1CCC(CC(=O)O)CC1
97
